Attribution: patent US20240109962A1

- target-desc: LILRB2 antigen of the ELISA of Table 5 (format not specified) (UniProt Q8N423 22-460, limits assumed)
- Sequence (Q8N423 22-460 limits assumed): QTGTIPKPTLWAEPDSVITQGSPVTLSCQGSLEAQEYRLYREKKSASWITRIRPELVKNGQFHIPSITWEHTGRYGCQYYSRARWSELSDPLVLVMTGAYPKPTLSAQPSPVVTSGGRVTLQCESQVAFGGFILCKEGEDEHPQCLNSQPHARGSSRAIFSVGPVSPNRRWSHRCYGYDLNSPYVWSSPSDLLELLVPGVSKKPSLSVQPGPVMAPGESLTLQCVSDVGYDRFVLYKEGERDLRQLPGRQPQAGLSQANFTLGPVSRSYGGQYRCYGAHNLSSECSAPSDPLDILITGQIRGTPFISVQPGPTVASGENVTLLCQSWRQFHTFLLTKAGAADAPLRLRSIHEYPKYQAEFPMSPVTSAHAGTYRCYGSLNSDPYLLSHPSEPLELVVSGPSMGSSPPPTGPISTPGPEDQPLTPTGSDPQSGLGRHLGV
- procedure-details: ELISA, antibody titration
measure-name: Kd

binder	value-observed
Antibody 11D9 (antibody, V domains shown, Mouse hybridoma mAb purified from ascites) VH: EIQLQQSGPELVKPGASVKLSCKASGYAFTTYNMYWVKQSPGKSLEWIGYIDPYNGGATYNLKFKGKATLTVDKSSSAAYMHLNGLTSEDSAVYYCAGGDYFNYWGQGTILTVSS VL: DIQMTQTTSSLSASLGDRVTISCRASQVINNYLNWFQQKPDGTVKLLIYYTSTLHSGVPSRFSGSGSGTDYSLTISNLEPEDFATYYCQQYSTLPYTFGGGTKLEIK	1.43 nM
Antibody 13C4 (antibody, V domains shown, Mouse hybridoma mAb purified from ascites) VH: QIHLVQSGPELKKPGETVKISCKASGYTFTNYGMNWVKQAPGKALKWMGWMNTYIGEPTYADDFKGRFAFSLETSASTAYLQINNLKNEDMATYFCARRGDYASYYFDYWGQGTTLTVSS VL: DIVLTQSPATLSVTPGDSVSLSCRASQNINNNLHWYHQKSHESPRLLIKYASQSISGIPSRVSGSGSGTDFTLSIVTVETEDFGMFFCQQSNSWPHTFGGGTKLEIR	11.7 nM
Antibody 9B6 (antibody, V domains shown, Mouse hybridoma mAb purified from ascites) VH: DVQLVESGGGLVQPGWSRILSCAASGFTFSNFGMHWVRQAPEKGLEWVAYISSGSGTIYYSDTVRGRFTISRDNPKNTLFLLMTSLRSEDTAMYYCTRSDYDGDWFFDVWGAGTTVTVSS VL: DIVMTQSHRFLSTSVGDRVTITCKASQDVTTAVAWCQQKPGQSPKLLIYSASFRYTGVPDRFTGSGSGTDFTFTINNVQAEDLALYYCQQHFTTPLTFGAGTKLELK	0.943 nM
